Origin of measurements: ChEMBL document CHEMBL1697781

// GGT Increase - Index Value lookup, one value per entry
Test system: Hepatotoxicity; also: reference of the scale not given here
ASSAY SUMMARY: FDA HLAED, gamma-glutamyl transferase (GGT) increase
MEASUREMENT SETUP: human
ATTRIBUTE MEASURED: GGT Increase - Index Value

INSERT INTO measurements (compound, target_or_system, attribute_measured, assay_value) VALUES
  ('NC(=O)OCC(COC(N)=O)c1ccccc1 [FELBAMATE]', 'Hepatotoxicity', 'GGT Increase - Index Value', 15.8),
  ('Cc1cccc(Nc2ccncc2S(=O)(=O)NC(=O)NC(C)C)c1 [TORSEMIDE]', 'Hepatotoxicity', 'GGT Increase - Index Value', 0),
  ('CC1COc2c(N3CCN(C)CC3)c(F)cc3c(=O)c(C(=O)O)cn1c23 (configuration not stated) [OFLOXACIN]', 'Hepatotoxicity', 'GGT Increase - Index Value', 0.5),
  ('CCN(CC)CCNC(=O)c1ccc(N)cc1 [PROCAINAMIDE]', 'Hepatotoxicity', 'GGT Increase - Index Value', 0),
  ('CC(CCc1ccc(O)cc1)NCCc1ccc(O)c(O)c1 (configuration not stated) [DOBUTAMINE]', 'Hepatotoxicity', 'GGT Increase - Index Value', 0),
  ('CC(C)c1cccc(C(C)C)c1O [PROPOFOL]', 'Hepatotoxicity', 'GGT Increase - Index Value', 0.1),
  ('CCC(C)n1ncn(-c2ccc(N3CCN(c4ccc(OCC5COC(Cn6cncn6)(c6ccc(Cl)cc6Cl)O5)cc4)CC3)cc2)c1=O (configuration not stated) [ITRACONAZOLE]', 'Hepatotoxicity', 'GGT Increase - Index Value', 14.1),
  ('C[C@]12CC[C@H]3[C@@H](CCC4=CC(=O)CC[C@@]43C)[C@@H]1CC[C@@H]2O [TESTOSTERONE]', 'Hepatotoxicity', 'GGT Increase - Index Value', 4.8),
  ('CO[C@H]1/C=C/O[C@@]2(C)Oc3c(C)c(O)c4c(c3C2=O)C2=NC3(CCN(CC(C)C)CC3)NC2=C(NC(=O)/C(C)=C\C=C\[C@H](C)[C@H](O)[C@@H](C)[C@@H](O)[C@@H](C)[C@H](OC(C)=O)[C@@H]1C)C4=O [RIFABUTIN]', 'Hepatotoxicity', 'GGT Increase - Index Value', 18.5),
  ('C=C1/C(=C\C=C2/CCC[C@]3(C)[C@@H]([C@H](C)/C=C/[C@@H](O)C4CC4)CC[C@@H]23)C[C@@H](O)C[C@@H]1O [CALCIPOTRIENE]', 'Hepatotoxicity', 'GGT Increase - Index Value', 0),
  ('Oc1ccc2c(c1)[C@@]13CCCC[C@@]1(O)[C@@H](C2)N(CC1CCC1)CC3 [BUTORPHANOL]', 'Hepatotoxicity', 'GGT Increase - Index Value', 0),
  ('OC(c1cc(C(F)(F)F)nc2c(C(F)(F)F)cccc12)C1CCCCN1 (configuration not stated) [MEFLOQUINE]', 'Hepatotoxicity', 'GGT Increase - Index Value', 18),
  ('Nc1nc2c(ncn2COCCO)c(=O)[nH]1 [ACYCLOVIR]', 'Hepatotoxicity', 'GGT Increase - Index Value', 0),
  ('Cc1cc(CC(=O)O)n(C)c1C(=O)c1ccc(Cl)cc1 [ZOMEPIRAC]', 'Hepatotoxicity', 'GGT Increase - Index Value', 0),
  ('COc1cc(CC2c3c(cc(OC)c(OC)c3OC)CC[N+]2(C)CCCOC(=O)CCC(=O)OCCC[N+]2(C)CCc3cc(OC)c(OC)c(OC)c3C2Cc2cc(OC)c(OC)c(OC)c2)cc(OC)c1OC.[Cl-].[Cl-] (configuration not stated) [DOXACURIUM CHLORIDE]', 'Hepatotoxicity', 'GGT Increase - Index Value', 0),
  ('C/C(=C\C(=O)OCCCCCCCCC(=O)O)C[C@@H]1OC[C@H](C[C@@H]2O[C@H]2[C@@H](C)[C@H](C)O)[C@@H](O)[C@H]1O [MUPIROCIN]', 'Hepatotoxicity', 'GGT Increase - Index Value', 0),
  ('COc1ccc(CC2c3cc(OC)c(OC)cc3CC[N+]2(C)CCC(=O)OCCCCCOC(=O)CC[N+]2(C)CCc3cc(OC)c(OC)cc3C2Cc2ccc(OC)c(OC)c2)cc1OC (configuration not stated)', 'Hepatotoxicity', 'GGT Increase - Index Value', 0),
  ('CN1CCN(C2=Nc3cc(Cl)ccc3Nc3ccccc32)CC1 [CLOZAPINE]', 'Hepatotoxicity', 'GGT Increase - Index Value', 11.4),
  ('N=C(N)NCC1COC2(CCCCC2)O1 (configuration not stated)', 'Hepatotoxicity', 'GGT Increase - Index Value', 0),
  ('CCC1(c2ccc(N)cc2)CCC(=O)NC1=O (configuration not stated) [AMINOGLUTETHIMIDE]', 'Hepatotoxicity', 'GGT Increase - Index Value', 0),
  ('CC[C@@H]1C(=O)OC[C@@H]1Cc1cncn1C [PILOCARPINE]', 'Hepatotoxicity', 'GGT Increase - Index Value', 0),
  ('C[C@H]1C[C@H]2[C@@H]3CCC4=CC(=O)C=C[C@]4(C)[C@@]3(Cl)[C@@H](O)C[C@]2(C)[C@@]1(O)C(=O)CO [BECLOMETHASONE]', 'Hepatotoxicity', 'GGT Increase - Index Value', 0),
  ('FCOC(C(F)(F)F)C(F)(F)F [SEVOFLURANE]', 'Hepatotoxicity', 'GGT Increase - Index Value', 0),
  ('CO[C@@]1(NC(=O)CSCC#N)C(=O)N2C(C(=O)O)=C(CSc3nnnn3C)CS[C@@H]21 [CEFMETAZOLE]', 'Hepatotoxicity', 'GGT Increase - Index Value', 0),
  ('Cc1nnc2n1-c1ccc(Cl)cc1C(c1ccccc1Cl)=NC2 [TRIAZOLAM]', 'Hepatotoxicity', 'GGT Increase - Index Value', 0),
  ('COc1cc(C(=O)NS(=O)(=O)c2ccccc2C)ccc1Cc1cn(C)c2ccc(NC(=O)OC3CCCC3)cc12 [ZAFIRLUKAST]', 'Hepatotoxicity', 'GGT Increase - Index Value', 0.5),
  ('Cn1c(=O)c2[nH]cnc2n(C)c1=O.O [THEOPHYLLINE]', 'Hepatotoxicity', 'GGT Increase - Index Value', 0);
